assayed.system: Phosphoethanolamine/phosphocholine phosphatase (Homo sapiens) (UniProt Q8TCT1)
Sequence (Q8TCT1 whole entry, looked up): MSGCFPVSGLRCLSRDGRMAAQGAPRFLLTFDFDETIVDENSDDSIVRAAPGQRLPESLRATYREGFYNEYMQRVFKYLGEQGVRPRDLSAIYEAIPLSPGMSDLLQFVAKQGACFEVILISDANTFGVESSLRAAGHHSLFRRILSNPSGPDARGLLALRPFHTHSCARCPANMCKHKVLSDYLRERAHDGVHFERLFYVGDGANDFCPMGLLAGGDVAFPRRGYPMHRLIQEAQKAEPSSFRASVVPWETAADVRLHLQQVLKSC
assay: PubChem AID 1565
test.parameters: recombinant PHOSPHO1, absorbance phosphatase assay; at 13.3 µM; stronger effect = higher value
The campaign covered roughly 290,000 compounds. About 3,200 (1.1%) were called active. The sample as a whole holds a higher share of actives than the screen did.
Reported inhibition values are given for each entry in this list.

# compound, assayed.system, inhibition, %
data = [
    ("COc1ccc(C(=O)NC2CC2)cc1OC1CCN(Cc2ccc(SC)cc2)CC1", "Phosphoethanolamine/phosphocholine phosphatase (Homo sapiens) (UniProt Q8TCT1)", 27.3),
    ("COc1ccc(OCCC(=O)c2ccc(OC)cc2)cc1", "Phosphoethanolamine/phosphocholine phosphatase (Homo sapiens) (UniProt Q8TCT1)", 20),
    ("Cc1cccc(NS(=O)(=O)c2ccc(C(=O)NCC(C)(C)N3CCOCC3)cc2)c1C", "Phosphoethanolamine/phosphocholine phosphatase (Homo sapiens) (UniProt Q8TCT1)", 65.4),
    ("CC1CC(C)CN(c2ccc(S(=O)(=O)N3CCOCC3)cc2)C1 (stereo not given)", "Phosphoethanolamine/phosphocholine phosphatase (Homo sapiens) (UniProt Q8TCT1)", 33.4),
    ("Cc1ccc(S(=O)(=O)N2CCN(C(=O)N3CCOCC3)CC2)c(C)c1", "Phosphoethanolamine/phosphocholine phosphatase (Homo sapiens) (UniProt Q8TCT1)", -7.3),
    ("NC(=O)c1c(NC(=O)CSc2nnc(-c3ccco3)n2N)sc2c1CCCC2", "Phosphoethanolamine/phosphocholine phosphatase (Homo sapiens) (UniProt Q8TCT1)", 103),
    ("O=S(=O)(Cc1cc(Cl)nc(-c2cccnc2)n1)c1ccccc1", "Phosphoethanolamine/phosphocholine phosphatase (Homo sapiens) (UniProt Q8TCT1)", 17.6),
    ("O=C(COC(=O)/C=C/c1cccs1)NC1CCCCC1", "Phosphoethanolamine/phosphocholine phosphatase (Homo sapiens) (UniProt Q8TCT1)", 51),
    ("Fc1ccc(/C=N/n2c(COc3ccccc3)n[nH]c2=S)cc1", "Phosphoethanolamine/phosphocholine phosphatase (Homo sapiens) (UniProt Q8TCT1)", 5.5),
    ("C/C(=C\\c1ccccc1)C1NC(=O)c2c(sc3c2CCCC3)N1 (stereo not given)", "Phosphoethanolamine/phosphocholine phosphatase (Homo sapiens) (UniProt Q8TCT1)", 12.2),
    ("CC(=O)c1ccc(OCCN2CCOCC2)cc1", "Phosphoethanolamine/phosphocholine phosphatase (Homo sapiens) (UniProt Q8TCT1)", -11.5),
    ("COCCOC(=O)c1sc(=S)n(CCOC)c1N", "Phosphoethanolamine/phosphocholine phosphatase (Homo sapiens) (UniProt Q8TCT1)", 76.4),
    ("COc1cc(C(=S)N2CCOCC2)ccc1O", "Phosphoethanolamine/phosphocholine phosphatase (Homo sapiens) (UniProt Q8TCT1)", 3.5),
    ("S=C(c1ccccc1)N1CCCC1", "Phosphoethanolamine/phosphocholine phosphatase (Homo sapiens) (UniProt Q8TCT1)", 29),
    ("Cc1ccc(C(=O)N(CC(=O)NC2CCCC2)c2ccc(F)cc2)s1", "Phosphoethanolamine/phosphocholine phosphatase (Homo sapiens) (UniProt Q8TCT1)", 40.5),
    ("CSc1ccc(S(=O)(=O)N2CCC(C(=O)NCCc3ccccc3)CC2)cc1", "Phosphoethanolamine/phosphocholine phosphatase (Homo sapiens) (UniProt Q8TCT1)", 13.8),
    ("COC(=O)c1sc(=S)n(-c2ccc(Cl)cc2)c1C", "Phosphoethanolamine/phosphocholine phosphatase (Homo sapiens) (UniProt Q8TCT1)", -2.1),
    ("CCOC(=O)c1c(N)sc(C(C)=O)c1C", "Phosphoethanolamine/phosphocholine phosphatase (Homo sapiens) (UniProt Q8TCT1)", 33),
    ("COc1cc(/C=N/O)ccc1OCc1ccc([N+](=O)[O-])cc1", "Phosphoethanolamine/phosphocholine phosphatase (Homo sapiens) (UniProt Q8TCT1)", 5.6),
    ("Cc1ccccc1Cn1c2ccccc2c2cnn(CC(=O)NCc3ccco3)c(=O)c21", "Phosphoethanolamine/phosphocholine phosphatase (Homo sapiens) (UniProt Q8TCT1)", 60.8),
    ("COc1cccc(C(=O)N2CCC(n3nccc3NC(=O)C3CCOC3)CC2)c1 (stereo not given)", "Phosphoethanolamine/phosphocholine phosphatase (Homo sapiens) (UniProt Q8TCT1)", 40.8),
    ("OCCN1CCN(C(=S)c2ccc(-c3ccccc3)cc2)CC1", "Phosphoethanolamine/phosphocholine phosphatase (Homo sapiens) (UniProt Q8TCT1)", 71.4),
    ("CCCNC(=O)COc1coc(CN2CCN(Cc3ccccc3)CC2)cc1=O", "Phosphoethanolamine/phosphocholine phosphatase (Homo sapiens) (UniProt Q8TCT1)", 36),
    ("CC(C)C[C@H](NC(=O)N1CC(=O)Nc2ccccc21)C(=O)N[C@H](Cc1ccccc1)C(=O)O", "Phosphoethanolamine/phosphocholine phosphatase (Homo sapiens) (UniProt Q8TCT1)", 33.8),
    ("COc1cc(/C=N/n2c(C)n[nH]c2=S)ccc1OCc1ccccc1", "Phosphoethanolamine/phosphocholine phosphatase (Homo sapiens) (UniProt Q8TCT1)", 69.1),
    ("CC(C)CCOc1ccc(C(=O)C[N+]2(C)CCOCC2)cc1", "Phosphoethanolamine/phosphocholine phosphatase (Homo sapiens) (UniProt Q8TCT1)", 90.6),
    ("CC(C)(CNC(=O)c1ccc(Cl)c(S(=O)(=O)N2CCc3ccccc3C2)c1)N1CCOCC1", "Phosphoethanolamine/phosphocholine phosphatase (Homo sapiens) (UniProt Q8TCT1)", 38.5),
    ("Cc1ccc(NC(=O)CN(C)C(=O)COC(=O)C(C)(C)Oc2ccc(Cl)cc2)cc1", "Phosphoethanolamine/phosphocholine phosphatase (Homo sapiens) (UniProt Q8TCT1)", 14.5),
    ("CN(C)c1cccc(C(=O)N2CCC(n3nccc3NC(=O)C3CCOC3)CC2)c1 (stereo not given)", "Phosphoethanolamine/phosphocholine phosphatase (Homo sapiens) (UniProt Q8TCT1)", 27.6),
    ("Clc1cc(NC2CCCCC2)ncn1", "Phosphoethanolamine/phosphocholine phosphatase (Homo sapiens) (UniProt Q8TCT1)", -10.9),
    ("CC(C)c1ccc(S(=O)(=O)NC2CCCC2)cc1", "Phosphoethanolamine/phosphocholine phosphatase (Homo sapiens) (UniProt Q8TCT1)", 24),
    ("COCCNC(=O)c1ccc2nc(Cc3ccc(OC)c(OC)c3)oc2c1", "Phosphoethanolamine/phosphocholine phosphatase (Homo sapiens) (UniProt Q8TCT1)", -8.2),
    ("COCC1CCN(C(=O)c2ccc3oc(Cc4ccccc4)nc3c2)C1 (stereo not given)", "Phosphoethanolamine/phosphocholine phosphatase (Homo sapiens) (UniProt Q8TCT1)", 27.6),
    ("Cc1nn(C(C)C(=O)NCCC2=CCCCC2)c(=O)c2nn(-c3ccccc3)c(C)c12 (stereo not given)", "Phosphoethanolamine/phosphocholine phosphatase (Homo sapiens) (UniProt Q8TCT1)", 54.1),
    ("COc1ccc(CNC(=O)C(C)n2nc(C)c3c(C)n(-c4ccccc4)nc3c2=O)c(OC)c1 (stereo not given)", "Phosphoethanolamine/phosphocholine phosphatase (Homo sapiens) (UniProt Q8TCT1)", 64.7),
    ("CC(C)CC(CCc1ccccc1)OS(N)(=O)=O (stereo not given)", "Phosphoethanolamine/phosphocholine phosphatase (Homo sapiens) (UniProt Q8TCT1)", 4),
    ("O=C(c1ccc(CS(=O)(=O)c2ccccc2)o1)N1CCN(c2ccccc2)CC1", "Phosphoethanolamine/phosphocholine phosphatase (Homo sapiens) (UniProt Q8TCT1)", 2.1),
    ("CCc1cccc(C)c1NC(=O)CSc1nnc(-c2ccco2)n1N", "Phosphoethanolamine/phosphocholine phosphatase (Homo sapiens) (UniProt Q8TCT1)", 22.6),
    ("Cc1cccc(NS(=O)(=O)c2ccc(-c3cnc(C4CC4)o3)cc2)c1", "Phosphoethanolamine/phosphocholine phosphatase (Homo sapiens) (UniProt Q8TCT1)", 36.8),
    ("COc1cc(NC(=O)C2CC(c3ccccc3O)=NO2)c(OC)cc1Cl (stereo not given)", "Phosphoethanolamine/phosphocholine phosphatase (Homo sapiens) (UniProt Q8TCT1)", 24.3),
    ("Cc1ccc(C(=O)N2CCC(n3nccc3NC(=O)Nc3cccc(F)c3)CC2)cn1", "Phosphoethanolamine/phosphocholine phosphatase (Homo sapiens) (UniProt Q8TCT1)", 64),
    ("Cc1cccc(C(=O)N2CCCN(C(=O)c3cccc(C)c3)CC2)c1", "Phosphoethanolamine/phosphocholine phosphatase (Homo sapiens) (UniProt Q8TCT1)", 8.5),
    ("COC(=O)c1ccc(/C=C2/C(=O)Oc3ccccc32)cc1", "Phosphoethanolamine/phosphocholine phosphatase (Homo sapiens) (UniProt Q8TCT1)", 32.5),
    ("CCc1ccc(NC(=O)CCNS(=O)(=O)c2cccs2)cc1", "Phosphoethanolamine/phosphocholine phosphatase (Homo sapiens) (UniProt Q8TCT1)", 35.1),
    ("COc1cc(OC)c(C2=NOC(C(=O)Nc3c(C)n(C)n(-c4ccccc4)c3=O)C2)cc1Cl (stereo not given)", "Phosphoethanolamine/phosphocholine phosphatase (Homo sapiens) (UniProt Q8TCT1)", 64.2),
]

These entries and their values trace back to PubChem BioAssay AID1565.
